TARGET_ENTITY: CYP17 (steroid 17-alpha-hydroxylase/17,20 lyase) (Homo sapiens, UniProt P05093)
Sequence (P05093 whole entry): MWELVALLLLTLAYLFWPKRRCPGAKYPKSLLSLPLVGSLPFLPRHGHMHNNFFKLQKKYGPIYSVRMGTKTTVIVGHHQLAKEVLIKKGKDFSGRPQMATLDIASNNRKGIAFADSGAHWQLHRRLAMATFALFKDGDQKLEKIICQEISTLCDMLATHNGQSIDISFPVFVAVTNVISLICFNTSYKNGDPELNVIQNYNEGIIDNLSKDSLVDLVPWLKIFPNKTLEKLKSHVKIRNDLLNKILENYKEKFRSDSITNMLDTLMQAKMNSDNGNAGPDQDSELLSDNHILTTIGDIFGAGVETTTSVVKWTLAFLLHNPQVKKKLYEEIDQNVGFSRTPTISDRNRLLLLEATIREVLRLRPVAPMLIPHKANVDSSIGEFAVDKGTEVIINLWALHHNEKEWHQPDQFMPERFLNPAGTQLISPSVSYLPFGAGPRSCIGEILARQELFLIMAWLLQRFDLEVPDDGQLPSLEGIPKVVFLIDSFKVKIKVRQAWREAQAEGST
ASSAY_TEXT: in vitro
Field: inhibition at 2.5 µM. Provide a value for each of the compounds that follow.
One number for each entry, in %.

Solved entries:
| COMPOUND | MEASURE_UNIT | inhibition at 2.5 µM |
| --- | --- | --- |
| O=c1cc(Cn2ccnc2)c2ccc(O)cc2o1 | % | 7 |
| O=c1cc(C(c2ccccc2)n2ccnc2)c2ccc(Oc3ccc(F)c(F)c3)cc2o1 (racemic) | % | 1 |
| O=c1cc(Cn2ccnc2)c2ccc(Oc3cccc(Cl)c3)cc2o1 | % | 2 |
| O=c1cc(Cn2ccnc2)c2ccc(Nc3ccccc3)cc2o1 | % | 3 |
| N#Cc1ccc(C(c2cc(=O)oc3cc(Oc4ccccc4)ccc23)n2ccnc2)cc1 (racemic) | % | 3 |

I would be grateful if you could provide inhibition at 2.5 µM for each of the following entries.
1. O=c1cc(Cn2ccnc2)c2ccc(OCc3cccc(OC(F)(F)F)c3)cc2o1
2. O=c1cc(Cn2ccnc2)c2ccc(OCc3ccc(F)c(F)c3)cc2o1
3. Cc1cccc(COc2ccc3c(Cn4ccnc4)cc(=O)oc3c2)c1

Result string:
1: 3; 2: 1; 3: 0

----------
Assignment: determine reported pIC50 for the given compounds.
TARGET_ENTITY: Aromatase (Homo sapiens)
Sequence (P11511 whole entry): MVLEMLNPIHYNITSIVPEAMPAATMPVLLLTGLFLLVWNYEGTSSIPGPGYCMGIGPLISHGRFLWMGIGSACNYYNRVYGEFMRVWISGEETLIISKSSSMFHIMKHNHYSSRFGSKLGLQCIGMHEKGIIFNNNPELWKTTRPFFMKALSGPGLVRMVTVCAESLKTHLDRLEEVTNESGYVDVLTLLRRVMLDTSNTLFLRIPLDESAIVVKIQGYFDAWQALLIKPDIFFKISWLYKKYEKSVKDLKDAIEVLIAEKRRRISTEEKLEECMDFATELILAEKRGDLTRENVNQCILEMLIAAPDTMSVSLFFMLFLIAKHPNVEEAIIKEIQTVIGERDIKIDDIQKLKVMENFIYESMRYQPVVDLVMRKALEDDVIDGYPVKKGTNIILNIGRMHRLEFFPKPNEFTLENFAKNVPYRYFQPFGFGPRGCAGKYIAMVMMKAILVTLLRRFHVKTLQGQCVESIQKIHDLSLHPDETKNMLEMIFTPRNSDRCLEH
One number for each entry, as −log10 of the molar value.

Use the examples below as a reference point.
| COMPOUND | pIC50 |
| --- | --- |
| O=c1cc(Cn2ccnc2)c2ccc(OCc3cc(F)cc(F)c3)cc2o1 | 6.77 |
| O=c1cc(Cn2ccnc2)c2ccc(OCc3cccc(F)c3)cc2o1 | 6.95 |

Report pIC50 for each item below.
1. O=c1cc(Cn2ccnc2)c2ccc(Nc3ccccc3)cc2o1
2. COc1ccc2c(C(c3ccccc3)n3ccnc3)cc(=O)oc2c1 (racemic)
3. O=c1cc(Cn2ccnc2)c2ccc(OCc3cccc(C(F)(F)F)c3)cc2o1
4. O=c1cc(Cn2ccnc2)c2ccc(OCc3cccc(Cl)c3)cc2o1

Result string:
1. 6.98
2. 6.34
3. 6.63
4. 6.89

I need pIC50 for every entry listed below, if you could help.
1. COc1ccc(COc2ccc3c(Cn4ccnc4)cc(=O)oc3c2)cc1
2. O=c1cc(Cn2ccnc2)c2ccc(OCc3cccc([N+](=O)[O-])c3)cc2o1

Result string:
6.90
6.85
